Test system: PPARg DBDmut:RXRa IVT, anti-PPARg (DBD mutation: PPARg1 K132A/R137A, NR concentration 270 nM, RXRa partner concentration 90 nM)
Test: PBM binding z-score (relative to random genomic background probes); higher = stronger binding; sequences stand for … in GC…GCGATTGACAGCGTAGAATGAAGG
Catalogue of PBM binding z-score values

# Item Sequence, PBM binding z-score
measured = [
    ("TAGCCTAGGTCATCCAGGGGCCAGTATAGAAAGC", 0.724),
    ("GCATATAGGGAATACAAGGTGAAAGTCCGATTGT", 0.819),
    ("CCTGCTAGGTCAATGGTCAGTTAAAGCAGCTCGC", -0.811),
    ("ACTAGTTGGTCAGGTGAGGTCACACACAATTCGG", 0.914),
    ("GAAACGAGGGCATTCGAGTTGATAGCATGGCGAT", 0.513),
    ("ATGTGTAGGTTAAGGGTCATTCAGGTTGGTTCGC", 1.46),
    ("TCGAGTATGTTAGGGGCATTCAGAATGGCGTCGA", -0.506),
    ("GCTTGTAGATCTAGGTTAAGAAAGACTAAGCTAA", 0.608),
    ("ATATGTAGGTTATCGGGTGATTCAGTTTGCGCAT", 2.9),
    ("TCTTGTAGATCAACAGGAGGTTACGAAAGATCGA", 0.791),
    ("ATACCAAGGTGATAGTGAGGTCGTTGATACTAAC", 0.276),
    ("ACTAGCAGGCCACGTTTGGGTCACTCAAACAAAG", -0.646),
    ("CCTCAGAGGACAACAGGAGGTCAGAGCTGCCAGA", -0.428),
    ("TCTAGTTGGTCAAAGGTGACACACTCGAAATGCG", 1.03),
    ("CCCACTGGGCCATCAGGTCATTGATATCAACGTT", 0.243),
    ("GCTTGCGGGTCAAAGGTTATAGCATGAATAGAAT", 0.506),
    ("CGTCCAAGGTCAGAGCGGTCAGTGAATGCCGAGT", -0.349),
    ("AGAAGGAGGGCAATGAGTTGATAGCACGGGTGGC", 0.99),
]
